# target.under.test: recombinant human GR (Homo sapiens)
# Construct: purchased Panvera/Invitrogen P2812 (kit P2893)
# Sequence (P04150 whole entry): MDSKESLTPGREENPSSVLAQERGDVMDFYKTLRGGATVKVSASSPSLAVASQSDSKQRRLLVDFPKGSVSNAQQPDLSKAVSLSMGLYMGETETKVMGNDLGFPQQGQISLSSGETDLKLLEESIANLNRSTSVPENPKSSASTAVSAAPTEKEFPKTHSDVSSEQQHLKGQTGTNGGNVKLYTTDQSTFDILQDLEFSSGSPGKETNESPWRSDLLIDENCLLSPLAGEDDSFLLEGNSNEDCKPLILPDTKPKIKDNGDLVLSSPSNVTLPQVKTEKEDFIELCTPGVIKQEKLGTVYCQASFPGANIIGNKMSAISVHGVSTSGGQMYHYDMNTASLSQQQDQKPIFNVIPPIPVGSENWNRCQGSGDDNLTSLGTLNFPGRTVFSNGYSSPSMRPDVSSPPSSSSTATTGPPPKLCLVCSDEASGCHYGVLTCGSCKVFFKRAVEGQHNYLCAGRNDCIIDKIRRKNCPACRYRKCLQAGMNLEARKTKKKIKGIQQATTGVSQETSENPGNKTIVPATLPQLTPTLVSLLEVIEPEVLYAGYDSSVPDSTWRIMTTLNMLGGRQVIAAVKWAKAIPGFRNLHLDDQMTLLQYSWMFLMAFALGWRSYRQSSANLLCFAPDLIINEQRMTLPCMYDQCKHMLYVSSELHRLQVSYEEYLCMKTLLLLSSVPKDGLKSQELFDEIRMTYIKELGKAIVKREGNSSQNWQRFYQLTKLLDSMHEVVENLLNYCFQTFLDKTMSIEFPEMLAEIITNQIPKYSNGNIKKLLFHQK
# experiment.summary: Human Glucocorticoid Receptor (GR) Assay (fluorescence polarization, Panvera/Invitrogen kit)
# Format: binding
# study.conditions: fluorescence polarization; GS Red tracer; 2 hours at room temperature; 100% control 10 μM Dexamethasone; read-out: Inhibition of GR binding, IC50
# Method: Human Glucocorticoid Receptor (GR) Assay The assay is based on a commercial kit from Panvera/Invitrogen (Part number P2893). The assay technology is fluorescence polarization. […] The GR and Stabilizing Peptide reagents are stored at −70° C. while the GS Red is stored at −20° C. Also included in the kit are 1M DTT (Panvera, Part number P2325, stored at −20° C.) and GR Screening buffer 10× (Panvera, Part number P2814, stored at −70° C. initially but once thawed stored at room temperature). […]
Quick list: IC50 per entry.
Numbers only; they are read as nM.

{"chemical.string": "C[C@]12Cc3cnn(-c4ccc(F)cc4)c3C=C1CC[C@H]1[C@@H]3CC[C@](OC(=O)C4CC4)(C(=O)SCC#N)[C@@]3(C)C[C@H](O)[C@@]12F", "target.under.test": "recombinant human GR (Homo sapiens)", "reported.property": "IC50", "numeric.result": 4.7}
{"chemical.string": "C[C@]12Cc3cnn(-c4cccc(C(=O)N5CCOCC5)c4)c3C=C1CC[C@@H]1[C@@H]2[C@@H](O)C[C@@]2(C)[C@H]1CC[C@]2(OC(=O)c1ccco1)C(=O)SCF", "target.under.test": "recombinant human GR (Homo sapiens)", "reported.property": "IC50", "numeric.result": 2.7}

Now consider the entry below.
[in] Identify IC50 associated with the compound `CSC(=O)[C@@]1(O)CC[C@H]2[C@@H]3CCC4=Cc5c(cnn5-c5ccc(F)nc5)C[C@]4(C)[C@H]3[C@@H](O)C[C@@]21C`
[out] 3.8
